pKi for Protease (Human immunodeficiency virus 1, UniProt Q9YQ12) - collated from the literature.
pKi: −log10 of the molar value.
I would appreciate it if you labelled entries condition met when pKi is 10 or higher, otherwise condition not met.

Is the recorded value of pKi equal to or greater than 10 for this compound? O=C1N(Cc2ccc3ccccc3c2)[C@H](Cc2ccccc2)[C@H](O)[C@@H](O)[C@@H](Cc2ccccc2)N1Cc1ccc2ccccc2c1
condition met

Input COC(=O)NC(C(=O)NN(CC(C)C)CC(O)[C@H](Cc1ccccc1)NC(=O)[C@@H]1CN(c2ccccc2)C(=O)O1)C(C)(C)C (stereo partly specified)
condition not met

Input N/C(=N/O)c1cccc(CN2C(=O)N(Cc3cccc(/C(N)=N\O)c3)C(Cc3ccc(F)c(F)c3)C(O)C2CCc2ccc(F)c(F)c2)c1 (stereo unspecified)
condition met

Input COc1ccc(C[C@H](NC(=O)c2cccc(N)c2Cl)[C@H](O)C(=O)N2CSC(C)(C)[C@H]2C(=O)NCc2ccccc2C)cc1
condition not met

Input COc1ccc(C[C@H](NC(=O)c2cccc(N)c2Cl)[C@H](O)C(=O)N2CCC(C)(C)[C@H]2C(=O)NCc2c(C)cccc2C)cc1
condition not met

====

pKi for Protease (Human immunodeficiency virus 1, UniProt Q9YQ12) - collated from the literature.
Schema: pKi number; meaning minus log10 of the concentration expressed in molar units.

What is its pKi for Protease (Human immunodeficiency virus 1, UniProt Q9YQ12)? Entry: COc1ccc(S(=O)(=O)N(CC(C)C)C[C@@H](O)[C@H](Cc2ccc(-c3ccc(C(=O)O)cc3)cc2)NC(=O)O[C@H]2CCOC2)cc1
8.72

Input N#Cc1cccc(CN2C(=O)N(Cc3cccc(C#N)c3)C(Cc3cccc(F)c3)C(O)C2CCc2ccc(F)cc2)c1 (stereo not drawn)
7.85

Input COc1cccc(C[C@H](NC(=O)c2cccc(N)c2Cl)[C@H](O)C(=O)N2CSC(C)(C)[C@H]2C(=O)NCc2ccccc2C)c1
9.59

====

pKi for Protease (Human immunodeficiency virus 1, UniProt Q9YQ12) - collated from the literature.
Schema: pKi number; meaning minus log10 of the concentration expressed in molar units.

Consider the compound NC(=O)c1cccc(CN2C(=O)N(Cc3cccc(C(N)=O)c3)C(Cc3ccc(F)c(F)c3)C(O)C2CCc2ccc(F)c(F)c2)c1 (stereo unspecified) and give its measured pKi.
9.82

Input COC(=O)N[C@H](C(=O)NN(CC[C@@](O)(Cc1ccccc1)C(=O)N[C@H]1c2ccccc2C[C@H]1O)Cc1ccc(-c2c(C)noc2C)cc1)C(C)(C)C
8.55

Input CCOc1ccc(C[C@H](NC(=O)c2cccc(N)c2Cl)[C@H](O)C(=O)N2CSC(C)(C)[C@H]2C(=O)NCc2ccccc2C)cc1
9.51

Input CC(=O)c1cccc(CN2C(=O)N(Cc3cccc(C(C)=O)c3)C(Cc3ccccc3)C(O)C2CCc2ccccc2)c1 (stereo unspecified)
9.04

Input COC(=O)N[C@H](C(=O)NN(CCC[C@@](O)(Cc1ccccc1)C(=O)N[C@H]1c2ccccc2C[C@H]1O)Cc1ccc(F)cc1)C(C)(C)C
8.17

Input COC(=O)N[C@H](C(=O)NN(CCC[C@@]1(O)Cc2ccc(cc2)C/C=C\CNC(=O)[C@H](C(C)C)NC1=O)Cc1ccc(Br)cc1)C(C)(C)C
8.51

Input COC(=O)N[C@H](C(=O)NN(Cc1ccccc1)C[C@@](O)(Cc1ccccc1)C(=O)N[C@H]1c2ccccc2C[C@H]1O)C(C)(C)C
8.22

Input C=CCNC(=O)[C@@H](NC(=O)[C@@](O)(CCCN(Cc1ccc(Br)cc1)NC(=O)[C@@H](NC(=O)OC)C(C)(C)C)Cc1ccc(Br)cc1)C(C)(C)C
8.00

Input CCOc1ccc(C[C@H](NC(=O)c2cccc(N)c2Cl)[C@H](O)C(=O)N2CSC(C)(C)[C@H]2C(=O)NCc2c(C)cccc2C)cc1
9.82

Input COC(=O)N[C@H](C(=O)NN(CC[C@@](O)(Cc1ccccc1)C(=O)N[C@H]1c2ccccc2C[C@H]1O)Cc1ccc(-c2ccncc2)cc1)C(C)(C)C
8.64
